Assay: Henry solubility constant Hcp at 310 K (mol/(m3 Pa))
Conditions: reference: Johanson and Dynésius (1988)
assay.endpoint: Henry solubility constant Hcp at 310 K

[[record]]
compound = "COCC(C)O (centres undefined)"
quantitative_result = 4.8

[[record]]
compound = "CCOCCOC(C)=O [2-ethoxyethyl ethanoate]"
quantitative_result = 1.5

[[record]]
compound = "COCCO"
quantitative_result = 14

[[record]]
compound = "CCOCCO"
quantitative_result = 8.9


---

Assay: Henry solubility constant Hcp at 298.15 K (mol/(m3 Pa))
Conditions: reference: Amoore and Buttery (1978)
Returns one of Condition met or Condition not met; Condition met when Henry solubility constant Hcp is >= 0.08.

[[record]]
compound = "C=C(C)[C@@H]1CC=C(C)C(=O)C1 [2-methyl-5-(1-methylethenyl)-2-cyclohexen-1-one]"
assigned_category = "Condition met"

[[record]]
compound = "CC(C)CC(=O)O [3-methylbutanoic acid]"
assigned_category = "Condition met"

[[record]]
compound = "C1=NCCC1 [1-pyrroline]"
assigned_category = "Condition met"

[[record]]
compound = "CC(C)COC(=O)C(C)C [2-methylpropyl 2-methylpropanoate]"
assigned_category = "Condition not met"

[[record]]
compound = "O=C1CCCCCCCCCCCCCCO1 [oxacyclohexadecan-2-one]"
assigned_category = "Condition not met"

[[record]]
compound = "CC12CCC(CC1)C(C)(C)O2 [1,3,3-trimethyl-2-oxabicyclo[2.2.2]octane]"
assigned_category = "Condition met"

[[record]]
compound = "CN(C)C [trimethylamine]"
assigned_category = "Condition not met"

[[record]]
compound = "CCCCCN [1-pentanamine]"
assigned_category = "Condition met"


---

Test: Henry solubility constant Hcp at 298.15 K (mol/(m3 Pa))
Conditions: reference: Maaßen (1995)
assay.endpoint: Henry solubility constant Hcp

[[record]]
structure = "CCCl"
quantitative_result = 0.00089

[[record]]
structure = "FC(F)(F)CCl"
quantitative_result = 0.00037

[[record]]
structure = "FC(F)F"
quantitative_result = 0.00012

[[record]]
structure = "CC(F)F"
quantitative_result = 0.0005

[[record]]
structure = "CC(F)(F)Cl"
quantitative_result = 0.00014

[[record]]
structure = "FC(F)Cl"
quantitative_result = 0.00035

[[record]]
structure = "FC(F)=C(F)C(F)(F)F"
quantitative_result = "6.8e-06"


---

Test: Henry solubility constant Hcp at 298.15 K (mol/(m3 Pa))
Conditions: reference: Long et al. (2017)
assay.endpoint: Henry solubility constant Hcp

[[record]]
structure = "Brc1cc(Br)c(Oc2cc(Br)c(Br)cc2Br)cc1Br"
assay_endpoint = "Henry solubility constant Hcp"
result = 3.7

[[record]]
structure = "Brc1ccc(Oc2ccc(Br)cc2Br)c(Br)c1"
assay_endpoint = "Henry solubility constant Hcp"
result = 0.91

[[record]]
structure = "Brc1ccc(Oc2cc(Br)c(Br)cc2Br)c(Br)c1"
assay_endpoint = "Henry solubility constant Hcp"
result = 1.5

[[record]]
structure = "Brc1cc(Br)c(Oc2cc(Br)c(Br)cc2Br)c(Br)c1"
assay_endpoint = "Henry solubility constant Hcp"
result = 7.1

[[record]]
structure = "Brc1ccc(Oc2ccc(Br)cc2Br)cc1"
assay_endpoint = "Henry solubility constant Hcp"
result = 0.16

[[record]]
structure = "Brc1ccc(Oc2c(Br)cc(Br)cc2Br)c(Br)c1"
assay_endpoint = "Henry solubility constant Hcp"
result = 3.6

[[record]]
structure = "Brc1c(Br)c(Br)c(Oc2c(Br)c(Br)c(Br)c(Br)c2Br)c(Br)c1Br"
assay_endpoint = "Henry solubility constant Hcp"
result = 18

